# System: HepaRG cells
# assay.protocol: Neutral lipids with Nile red in HepaRG cells
# particulars: 4 days, selected concentrations (ATP loss < 30%, not above 100 × Cmax), vs control
test.readout: Accumulation of neutral lipids (steatosis)

Cn1cc[nH]c1=S [METHI, methimazole] | did not induce steatosis
CC(C)(S)[C@@H](N)C(=O)O [DPEN, D-penicillamine] | did not induce steatosis

====

# Test system: de novo lipogenesis (DNL)
# assay.protocol: DNL from [2-14C]acetic acid in HepaRG cells
# Format: cell-based, human
# particulars: 4 days, vs control
test.readout: Effect on DNL

CC1=C(CC(=O)O)c2cc(F)ccc2/C1=C\c1ccc([S+](C)[O-])cc1 (stereo not shown) | increased DNL
COc1ccc2c(c1)c(CC(=O)O)c(C)n2C(=O)c1ccc(Cl)cc1 | increased DNL
CCCCc1oc2ccccc2c1C(=O)c1cc(I)c(OCCN(CC)CC)c(I)c1 | increased DNL

====

# assay.protocol: Maximum plasma concentration (Cmax) in patients
# Assay type: in vivo, human
# particulars: worked out from cited Cmax in patients
Each entry below lists one item and its recorded Concentration corresponding to 100xCmax value.
Reply numerically in µM, unit not repeated.

In the examples that follow, each entry is paired with its recorded Concentration corresponding to 100xCmax.
CC(C)(C)NC(=O)[C@@H]1CN(Cc2cccnc2)CCN1C[C@@H](O)C[C@@H](Cc1ccccc1)C(=O)N[C@H]1c2ccccc2C[C@H]1O | 1300
CC(C)(S)[C@@H](N)C(=O)O | 2500
Oc1ncnc2[nH]ncc12 | 1500

# context switch: different compound, same Concentration corresponding to 100xCmax
Query string: For the compound shown here, CC1=C(CC(=O)O)c2cc(F)ccc2/C1=C\c1ccc([S+](C)[O-])cc1 (stereo not shown) , give the reported Concentration corresponding to 100xCmax.
Result string: 3200

====

Consider the following molecules and their measured Concentration corresponding to 100xCmax readings.
# assay.protocol: Maximum plasma concentration (Cmax) in patients
# Type: in vivo, human
# particulars: worked out from cited Cmax in patients
Numbers only here, please. The scale is µM.

// worked examples, Concentration corresponding to 100xCmax included
Cc1c(C)c2c(c(C)c1O)CCC(C)(COc1ccc(CC3SC(=O)NC3=O)cc1)O2 (stereo not shown) [TRO, troglitazone] | 640
CO[C@H]1/C=C/O[C@@]2(C)Oc3c(C)c(O)c4c(O)c(c(/C=N/N5CCN(C)CC5)c(O)c4c3C2=O)NC(=O)/C(C)=C\C=C\[C@H](C)[C@H](O)[C@@H](C)[C@@H](O)[C@@H](C)[C@H](OC(C)=O)[C@@H]1C [RIF, rifampicin] | 1900

Query string: // lookup Concentration corresponding to 100xCmax for O=c1[nH]cc(F)c(=O)[nH]1 [5FU, 5-fluorouracil]
Result string: 42000

Query string: Name the recorded Concentration corresponding to 100xCmax for COc1ccc2c(c1)c(CC(=O)O)c(C)n2C(=O)c1ccc(Cl)cc1 [INDO, indomethacin] .
Result string: 2200
